Species on record: Homo sapiens
Assay: Inhibition of recombinant PI3K (unknown origin) assessed as residual activity at 100 uM by [gamma-32P]ATP based assay
Endpoint Name: Activity (%)

* O=c1c2cnn(-c3ccccc3)c2n2c(-c3ccccc3)nnc2n1-c1ccccc1 | 82
* COc1ccc(C(=O)NNc2nc3c(cnn3-c3ccccc3)c(=O)n2-c2ccccc2)cc1 | 80
* COc1ccc(-c2nnc3n(-c4ccccc4)c(=O)c4cnn(-c5ccccc5)c4n23)cc1 | 90
* O=C(NNc1nc2c(cnn2-c2ccccc2)c(=O)n1-c1ccccc1)c1ccccc1 | 100
